Molecular target: PI3Kγ (p110γ) Recombinant Human Protein (Homo sapiens (Human), UniProt P48736)
Sequence (P48736 whole entry): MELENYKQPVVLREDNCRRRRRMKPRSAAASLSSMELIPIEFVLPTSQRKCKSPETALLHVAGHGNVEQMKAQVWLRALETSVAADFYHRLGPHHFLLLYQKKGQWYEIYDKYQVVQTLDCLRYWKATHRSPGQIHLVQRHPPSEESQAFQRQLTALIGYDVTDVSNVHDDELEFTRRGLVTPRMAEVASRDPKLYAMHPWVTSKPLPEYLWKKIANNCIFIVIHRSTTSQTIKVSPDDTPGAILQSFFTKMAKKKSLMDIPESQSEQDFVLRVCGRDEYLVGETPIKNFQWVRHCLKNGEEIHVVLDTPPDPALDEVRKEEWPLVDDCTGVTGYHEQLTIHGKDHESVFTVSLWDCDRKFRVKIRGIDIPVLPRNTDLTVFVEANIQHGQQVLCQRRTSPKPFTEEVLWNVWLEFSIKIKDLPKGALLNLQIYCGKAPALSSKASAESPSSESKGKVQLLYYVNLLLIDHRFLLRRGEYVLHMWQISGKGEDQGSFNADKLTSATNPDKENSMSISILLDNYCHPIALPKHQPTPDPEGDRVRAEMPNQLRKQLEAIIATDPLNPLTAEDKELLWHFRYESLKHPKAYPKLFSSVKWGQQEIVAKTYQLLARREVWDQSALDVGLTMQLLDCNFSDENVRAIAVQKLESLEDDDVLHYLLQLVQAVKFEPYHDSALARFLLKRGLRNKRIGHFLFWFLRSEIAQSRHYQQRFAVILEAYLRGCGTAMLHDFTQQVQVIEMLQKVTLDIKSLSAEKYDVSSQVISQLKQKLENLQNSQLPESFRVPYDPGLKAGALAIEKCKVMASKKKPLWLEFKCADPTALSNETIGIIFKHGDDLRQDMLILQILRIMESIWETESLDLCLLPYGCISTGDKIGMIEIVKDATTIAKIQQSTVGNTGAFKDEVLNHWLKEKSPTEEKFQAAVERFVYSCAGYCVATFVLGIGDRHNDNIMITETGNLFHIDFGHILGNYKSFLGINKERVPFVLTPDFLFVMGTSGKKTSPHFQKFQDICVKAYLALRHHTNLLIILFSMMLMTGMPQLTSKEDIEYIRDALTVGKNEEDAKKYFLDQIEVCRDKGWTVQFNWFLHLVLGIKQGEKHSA
Assay: PI3K-γ Scintillation Proximity Assay
Settings: 20 μM PIP2, 2 μM ATP, 13 nM PI3Kγ, 120 min; read-out: PI3K-gamma SPA IC50
pIC50: −log10 of the molar value. Where a name gives a salt, the structure may show the parent alone.
pIC50 values by entry

Please review the entries below; each comes with its answer.
[[record]]
molecule = "COc1cncc(-c2ccc3nc(-c4cnc(C5CC5)[nH]4)oc3c2)c1"
measured_quantity = "pIC50"
result = "> 6.00"

[[record]]
molecule = "CN1CCN(S(=O)(=O)Nc2cncc(-c3ccc4nc(-c5nc6ccccc6[nH]5)oc4c3)c2)CC1"
measured_quantity = "pIC50"
result = "> 6.60"

[[record]]
molecule = "COc1cncc(-c2ccc3nc(-c4cnc(-c5ccccc5)[nH]4)oc3c2)c1"
measured_quantity = "pIC50"
result = "> 6.60"

[[record]]
molecule = "CCS(=O)(=O)Nc1cc(-c2ccc3nc(-c4nc5ccccc5[nH]4)oc3c2)ncc1F [Example 78, bis(trifluoroacetate)]"
measured_quantity = "pIC50"
result = "> 5.30"

[[record]]
molecule = "O=S(=O)(Nc1cncc(-c2ccc3nc(-c4nc5ccccc5[nH]4)oc3c2)c1)c1cccc(F)c1"
measured_quantity = "pIC50"
result = "> 6.60"


(Q) Fill in pIC50 for COc1cncc(-c2ccc3nc(-c4nc5ccccc5[nH]4)sc3c2)c1 [Example 6, trifluoroacetate] tested with PI3Kγ (p110γ) Recombinant Human Protein (Homo sapiens (Human), UniProt P48736).
(A) < 5.30

====

IC50 values by entry
Target: PI3Kγ (p110γ) Recombinant Human Protein (Homo sapiens (Human))
Assay: PI3K-γ Scintillation Proximity Assay
Details: 20 μM PIP2, 2 μM ATP, 13 nM PI3Kγ, 120 min; read-out: PI3K-gamma SPA IC50

[[record]]
compound = "Fc1ncc(-c2ccc3nc(-c4nc5ccccc5[nH]4)oc3c2)cn1 [Example 70, bis(trifluoroacetate)]"
tested_on = "PI3Kγ (p110γ) Recombinant Human Protein (Homo sapiens (Human))"
result = "< 1 µM"

[[record]]
compound = "O=S(=O)(Nc1cncc(-c2ccc3nc(-c4nc5ccccc5[nH]4)oc3c2)c1)c1ccc(F)cc1"
tested_on = "PI3Kγ (p110γ) Recombinant Human Protein (Homo sapiens (Human))"
result = "< 0.25 µM"


(Q) Entry O=S(=O)(c1cncc(-c2ccc3nc(-c4nc5ccccc5[nH]4)oc3c2)c1)N1CCC(O)C1 (stereo not shown) [Example 58, bis(trifluoroacetate)] needs its IC50 filled in; supply it.
(A) < 0.25 µM

(Q) Entry CCS(=O)(=O)Nc1cc(-c2ccc3nc(-c4nc5ccccc5[nH]4)oc3c2)cnc1F needs its IC50 filled in; supply it.
(A) < 0.25 µM

====

Biological target: PI3Kγ (p110γ) Recombinant Human Protein (Homo sapiens (Human), UniProt P48736)
Experiment: PI3K-γ Scintillation Proximity Assay
Settings: 20 μM PIP2, 2 μM ATP, 13 nM PI3Kγ, 120 min; read-out: PI3K-gamma SPA IC50
pIC50: −log10 of the molar value.
pIC50 values by entry

Please review the entries below; each comes with its answer.
[[record]]
compound = "c1ccc(CN2CCN(c3ccc4nc(-c5nc6ccccc6[nH]5)oc4c3)CC2)cc1 [Example 55, tris(trifluoroacetate)]"
result = "> 5.30"

[[record]]
compound = "COc1cncc(-c2ccc3nc(-c4cc(C)n[nH]4)oc3c2)c1 [Example 46]"
result = "< 5.30"

[[record]]
compound = "Brc1ccc2nc(-c3nc4ccccc4[nH]3)oc2c1 [Example 13]"
result = "> 5.30"

[[record]]
compound = "CCS(=O)(=O)Nc1cc(-c2ccc3nc(-c4nc(C)c(C)[nH]4)oc3c2)cnc1OC [Example 65, bis(trifluoroacetate)]"
result = "> 6.60"

[[record]]
compound = "CCCc1nc(-c2nc3ccc(-c4cncc(NS(=O)(=O)CC)c4)cc3o2)[nH]c1C [Example 64, bis(trifluoroacetate)]"
result = "> 6.60"


(Q) Entry CS(=O)(=O)c1cncc(-c2ccc3nc(-c4nc5ccccc5[nH]4)oc3c2)c1 [Example 36] needs its pIC50 filled in; supply it.
(A) > 6.60

(Q) Entry CCn1ncc2ccc(-c3ccc4nc(-c5nc6ccccc6[nH]5)oc4c3)cc21 [Example 54, bis(trifluoroacetate)] needs its pIC50 filled in; supply it.
(A) > 6.60

(Q) Entry CCS(=O)(=O)Nc1cc(-c2ccc3nc(-c4nc5c([nH]4)CCCC5)oc3c2)cnc1OC [Example 66] needs its pIC50 filled in; supply it.
(A) > 6.60

====

pIC50 values by entry
Target: PI3Kδ (p110δ/p85α) Recombinant Human Protein (Homo sapiens (Human), UniProt O00329)
Sequence (O00329 whole entry): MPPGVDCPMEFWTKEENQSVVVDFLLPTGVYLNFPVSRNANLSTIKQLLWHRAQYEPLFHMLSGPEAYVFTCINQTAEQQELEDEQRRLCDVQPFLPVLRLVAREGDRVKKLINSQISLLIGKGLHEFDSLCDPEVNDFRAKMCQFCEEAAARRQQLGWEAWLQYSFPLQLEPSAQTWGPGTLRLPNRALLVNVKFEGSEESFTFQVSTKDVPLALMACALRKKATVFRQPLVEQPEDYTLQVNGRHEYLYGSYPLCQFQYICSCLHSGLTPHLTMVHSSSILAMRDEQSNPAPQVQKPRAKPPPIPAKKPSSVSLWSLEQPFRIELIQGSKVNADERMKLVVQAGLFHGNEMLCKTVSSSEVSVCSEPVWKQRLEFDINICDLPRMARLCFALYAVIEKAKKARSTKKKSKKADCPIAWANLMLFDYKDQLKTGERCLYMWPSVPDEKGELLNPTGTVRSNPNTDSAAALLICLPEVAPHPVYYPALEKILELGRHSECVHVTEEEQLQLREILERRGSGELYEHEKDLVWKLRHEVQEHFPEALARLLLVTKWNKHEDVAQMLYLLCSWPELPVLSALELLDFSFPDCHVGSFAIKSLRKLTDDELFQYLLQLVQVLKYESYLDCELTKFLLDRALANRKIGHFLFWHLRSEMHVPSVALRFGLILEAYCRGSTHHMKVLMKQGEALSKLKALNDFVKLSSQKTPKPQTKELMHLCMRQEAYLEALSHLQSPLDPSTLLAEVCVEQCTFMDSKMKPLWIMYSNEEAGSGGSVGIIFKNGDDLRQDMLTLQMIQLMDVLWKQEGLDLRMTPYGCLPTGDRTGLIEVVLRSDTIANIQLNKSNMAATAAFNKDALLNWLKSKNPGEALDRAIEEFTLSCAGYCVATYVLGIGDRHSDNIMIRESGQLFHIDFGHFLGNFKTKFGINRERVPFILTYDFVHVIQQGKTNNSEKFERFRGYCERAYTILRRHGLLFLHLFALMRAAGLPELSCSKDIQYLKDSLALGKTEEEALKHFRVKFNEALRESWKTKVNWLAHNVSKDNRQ
Sequence (P27986 whole entry partner): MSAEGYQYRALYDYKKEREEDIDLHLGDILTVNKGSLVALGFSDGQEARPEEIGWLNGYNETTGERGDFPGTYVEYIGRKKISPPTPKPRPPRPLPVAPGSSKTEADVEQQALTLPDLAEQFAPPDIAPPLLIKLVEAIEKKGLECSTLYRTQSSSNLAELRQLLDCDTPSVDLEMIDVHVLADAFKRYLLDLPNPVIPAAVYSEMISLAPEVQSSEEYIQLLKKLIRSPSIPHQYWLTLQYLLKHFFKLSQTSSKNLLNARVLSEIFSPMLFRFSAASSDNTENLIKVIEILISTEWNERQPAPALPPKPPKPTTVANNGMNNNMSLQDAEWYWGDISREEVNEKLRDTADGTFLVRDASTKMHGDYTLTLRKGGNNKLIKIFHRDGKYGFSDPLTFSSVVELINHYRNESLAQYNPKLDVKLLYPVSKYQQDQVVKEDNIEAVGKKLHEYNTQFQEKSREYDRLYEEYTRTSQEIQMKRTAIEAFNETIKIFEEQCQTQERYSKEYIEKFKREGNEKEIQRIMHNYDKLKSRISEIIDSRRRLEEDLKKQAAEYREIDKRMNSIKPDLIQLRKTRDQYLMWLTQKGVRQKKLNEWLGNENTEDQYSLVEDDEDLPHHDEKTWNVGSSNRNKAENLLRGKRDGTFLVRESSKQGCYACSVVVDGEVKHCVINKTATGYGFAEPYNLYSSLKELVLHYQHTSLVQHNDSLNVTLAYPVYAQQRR
Experiment: PI3Kδ Scintillation Proximity Assay
Conditions: 20 μM PIP2, 2 μM ATP, 3.4 nM PI3Kδ, 120 min; read-out: PI3K-delta SPA IC50
pIC50: −log10 of the molar value.

Please review the entries below; each comes with its answer.
[[record]]
molecule = "Brc1ccc2nc(-c3nc4ccccc4[nH]3)oc2c1"
measured_quantity = "pIC50"
result = "≤ 5.30"

[[record]]
molecule = "CN1CCN(S(=O)(=O)Nc2cc(-c3ccc4nc(-c5nc6ccccc6[nH]5)oc4c3)cnc2F)CC1"
measured_quantity = "pIC50"
result = "> 6.60"

[[record]]
molecule = "O=S(=O)(c1cncc(-c2ccc3nc(-c4nc5ccccc5[nH]4)oc3c2)c1)N1CCOCC1"
measured_quantity = "pIC50"
result = "≤ 5.30"


// switching to the query molecule
(Q) Entry CCS(=O)(=O)Nc1cc(-c2ccc3nc(-c4nc5ccccc5[nH]4)oc3c2)cc(F)c1OC [Example 80, bis(trifluoroacetate)] needs its pIC50 filled in; supply it.
(A) > 5.30

====

Biological target: PI3Kδ (p110δ/p85α) Recombinant Human Protein (Homo sapiens (Human), UniProt O00329)
Assay: PI3Kδ Scintillation Proximity Assay
Details: 20 μM PIP2, 2 μM ATP, 3.4 nM PI3Kδ, 120 min; read-out: PI3K-delta SPA IC50
Structures can show the parent of a compound that is named as a salt.
Measured quantity: IC50

[[record]]
compound = "O=S(=O)(CC(F)(F)F)Nc1cc(-c2ccc3nc(-c4nc5ccccc5[nH]4)oc3c2)cnc1F [Example 75, bis(trifluoroacetate)]"
tested_on = "PI3Kδ (p110δ/p85α) Recombinant Human Protein (Homo sapiens (Human), UniProt O00329)"
measured_quantity = "IC50"
result = "< 0.25 µM"

[[record]]
compound = "CCS(=O)(=O)Nc1cc(-c2ccc3nc(-c4nc5ccccc5[nH]4)oc3c2)ncc1F [Example 78, bis(trifluoroacetate)]"
tested_on = "PI3Kδ (p110δ/p85α) Recombinant Human Protein (Homo sapiens (Human), UniProt O00329)"
measured_quantity = "IC50"
result = "< 5 µM"

[[record]]
compound = "OC(c1cncc(-c2ccc3nc(-c4nc5c([nH]4)CCCC5)oc3c2)c1)C(F)(F)F (stereo not shown) [Example 68]"
tested_on = "PI3Kδ (p110δ/p85α) Recombinant Human Protein (Homo sapiens (Human), UniProt O00329)"
measured_quantity = "IC50"
result = "< 0.25 µM"

[[record]]
compound = "COc1cncc(-c2ccc3nc(-c4cc(C)n[nH]4)oc3c2)c1 [Example 46]"
tested_on = "PI3Kδ (p110δ/p85α) Recombinant Human Protein (Homo sapiens (Human), UniProt O00329)"
measured_quantity = "IC50"
result = "≥ 5 µM"

[[record]]
compound = "CCc1ncc(-c2nc3ccc(-c4cncc(OC)c4)cc3o2)[nH]1 [Example 45]"
tested_on = "PI3Kδ (p110δ/p85α) Recombinant Human Protein (Homo sapiens (Human), UniProt O00329)"
measured_quantity = "IC50"
result = "≥ 5 µM"


(Q) Entry COc1cncc(-c2ccc3nc(-c4nc5ccccc5[nH]4)sc3c2)c1 [Example 6, trifluoroacetate] needs its IC50 filled in; supply it.
(A) ≥ 5 µM

(Q) Entry Cc1nc(-c2nc3ccc(-c4cncc(C(O)C(F)(F)F)c4)cc3o2)[nH]c1C (stereo not shown) [Example 67, bis(trifluoroacetate)] needs its IC50 filled in; supply it.
(A) < 0.25 µM

====

IC50 values by entry
Biological target: PI3Kδ (p110δ/p85α) Recombinant Human Protein (Homo sapiens (Human), UniProt O00329)
Assay: PI3Kδ Scintillation Proximity Assay
Conditions: 20 μM PIP2, 2 μM ATP, 3.4 nM PI3Kδ, 120 min; read-out: PI3K-delta SPA IC50

Please review the entries below; each comes with its answer.
[[record]]
compound = "CCn1cc2ccc(-c3ccc4nc(-c5nc6ccccc6[nH]5)oc4c3)cc2n1 [Example 53, bis(trifluoroacetate)]"
measured_quantity = "IC50"
result = "≥ 5 µM"

[[record]]
compound = "CCS(=O)(=O)n1ncc2ccc(-c3ccc4nc(-c5nc6ccccc6[nH]5)oc4c3)cc21"
measured_quantity = "IC50"
result = "< 0.25 µM"

[[record]]
compound = "CCn1ncc2ccc(-c3ccc4nc(-c5nc6ccccc6[nH]5)oc4c3)cc21 [Example 54, bis(trifluoroacetate)]"
measured_quantity = "IC50"
result = "≥ 5 µM"

[[record]]
compound = "Cc1ncc(-c2ccc3nc(-c4nc5ccccc5[nH]4)oc3c2)cc1NS(=O)(=O)N(C)C"
measured_quantity = "IC50"
result = "< 0.25 µM"

[[record]]
compound = "c1ccc(Cn2cc(-c3ccc4nc(-c5nc6ccccc6[nH]5)oc4c3)cn2)cc1"
measured_quantity = "IC50"
result = "< 5 µM"


(Q) Fill in IC50 for CN(C)S(=O)(=O)c1cncc(-c2ccc3nc(-c4nc5ccccc5[nH]4)oc3c2)c1 tested with PI3Kδ (p110δ/p85α) Recombinant Human Protein (Homo sapiens (Human), UniProt O00329).
(A) < 1 µM

(Q) Fill in IC50 for O=S(=O)(Nc1cncc(-c2ccc3nc(-c4nc5ccccc5[nH]4)oc3c2)c1)c1cccc(F)c1 tested with PI3Kδ (p110δ/p85α) Recombinant Human Protein (Homo sapiens (Human), UniProt O00329).
(A) < 0.25 µM
